Test system: 317291-083-R-J1-PDC complex spheroids, viability
measurementDescription: Anticancer human tumor 317291-083-R-J1-PDC patient-derived soft tissue sarcoma cell line growth inhibition [GQUAD]
settings: second compound 10 µM; first compound 0.316 µM; stronger effect = lower value
observationType: viability, T/C (%)
Express the result in % but write the number alone.

Would you please look over these solved cases?
- molecule: "CCCS(=O)(=O)Nc1ccc(F)c(C(=O)c2c[nH]c3ncc(-c4ccc(Cl)cc4)cc23)c1F + Cc1[nH]c2ccc(F)cc2c1-c1nc2c3cccnc3c3ncccc3c2[nH]1"
  reported: 42.4
- molecule: "CC1COCCN1c1cc(C2(S(C)(=N)=O)CC2)nc(-c2ccnc3[nH]ccc23)n1 (stereo not given) + Cc1cnc(CNC(=O)c2c(=O)c3ccc(N4CCCN(C)CC4)nc3n3c2sc2ccccc23)cn1"
  reported: 46.7
- molecule: "C#Cc1c(F)ccc2cc(O)cc(-c3ncc4c(N5CC6CCC(C5)N6)nc(OCC56CCCN5CC(F)C6)nc4c3F)c12 (stereo not given) + CN(C)c1ccc(Nc2c3ccc(NC(=O)CCN4CCCC4)cc3nc3cc(NC(=O)CCN4CCCC4)ccc23)cc1"
  reported: 0.29
- molecule: "Cn1ncnc1[C@H]1c2n[nH]c(=O)c3cc(F)cc(c23)N[C@@H]1c1ccc(F)cc1 + CN(C)c1ccc(Nc2c3ccc(NC(=O)CCN4CCCC4)cc3nc3cc(NC(=O)CCN4CCCC4)ccc23)cc1"
  reported: 8.04

Now consider the entry below.
Data request: Report its viability, T/C with 317291-083-R-J1-PDC complex spheroids, viability as the test system: Cc1cccc(N(C)C(=O)C2C(O)CCN2c2nc(C)cc(C(F)(F)F)c2C#N)c1 (stereo not given) + Cc1cnc(CNC(=O)c2c(=O)c3ccc(N4CCCN(C)CC4)nc3n3c2sc2ccccc23)cn1
Data returned: 24.4

* * *

In this section we review reported viability, T/C values for a set of compounds.
Tested on: 317291-083-R-J1-PDC complex spheroids, viability
measurementDescription: Anticancer human tumor 317291-083-R-J1-PDC cell line growth inhibition [GQUAD];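 further: spheroids exposed to compounds for one week before readout; percent viability relative to DMSO vehicle wells taken as 100%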
settings: second compound 0.0316 µM; first compound 3.16 µM; stronger effect = lower value
Express the result in % but write the number alone.

- compound: "COc1cccc2c1C(=O)c1c(O)c3c(c(O)c1C2=O)CC(O)(C(=O)CO)CC3OC1CC(N)C(O)C(C)O1 (stereo unspecified) + Cc1[nH]c2ccc(F)cc2c1-c1nc2c3cccnc3c3ncccc3c2[nH]1"
  resultUnits: "%"
  reported: 0.88

Data request: Recall and state the measured viability, T/C for O=C(c1cc(Cc2n[nH]c(=O)c3ccccc23)ccc1F)N1CCN(C(=O)C2CC2)CC1 + Cc1cnc(CNC(=O)c2c(=O)c3ccc(N4CCCN(C)CC4)nc3n3c2sc2ccccc23)cn1 .
Data returned: 67.7

Data request: Recall and state the measured viability, T/C for Nc1ccn(C2OC(CO)C(O)C2(F)F)c(=O)n1 (stereo unspecified) + Cc1[nH]c2ccc(F)cc2c1-c1nc2c3cccnc3c3ncccc3c2[nH]1 .
Data returned: 11.8

Data request: Recall and state the measured viability, T/C for C=CC(=O)N1CCN(c2nc(=O)n(-c3c(C)ccnc3C(C)C)c3nc(-c4c(O)cccc4F)c(F)cc23)C(C)C1 (stereo unspecified) + Cc1[nH]c2ccc(F)cc2c1-c1nc2c3cccnc3c3ncccc3c2[nH]1 .
Data returned: 102

Data request: Recall and state the measured viability, T/C for Nc1ccn(C2OC(CO)C(O)C2(F)F)c(=O)n1 (stereo unspecified) + Cc1cnc(CNC(=O)c2c(=O)c3ccc(N4CCCN(C)CC4)nc3n3c2sc2ccccc23)cn1 .
Data returned: 8.79

Data request: Recall and state the measured viability, T/C for Cc1cccc(N(C)C(=O)C2C(O)CCN2c2nc(C)cc(C(F)(F)F)c2C#N)c1 (stereo unspecified) + Cc1[nH]c2ccc(F)cc2c1-c1nc2c3cccnc3c3ncccc3c2[nH]1 .
Data returned: 100

Data request: Recall and state the measured viability, T/C for CC(C)(O)C1CCC(Nc2ccc3ncc(-c4cccc(C(F)(F)F)c4)n3n2)CC1 (stereo unspecified) + Cc1[nH]c2ccc(F)cc2c1-c1nc2c3cccnc3c3ncccc3c2[nH]1 .
Data returned: 0.62

Data request: Recall and state the measured viability, T/C for CCCS(=O)(=O)Nc1ccc(F)c(C(=O)c2c[nH]c3ncc(-c4ccc(Cl)cc4)cc23)c1F + CN(C)c1ccc(Nc2c3ccc(NC(=O)CCN4CCCC4)cc3nc3cc(NC(=O)CCN4CCCC4)ccc23)cc1 .
Data returned: 60.4

Data request: Recall and state the measured viability, T/C for C=CC(=O)N1CCN(c2nc(=O)n(-c3c(C)ccnc3C(C)C)c3nc(-c4c(O)cccc4F)c(F)cc23)C(C)C1 (stereo unspecified) + CN(C)c1ccc(Nc2c3ccc(NC(=O)CCN4CCCC4)cc3nc3cc(NC(=O)CCN4CCCC4)ccc23)cc1 .
Data returned: 98.4

Data request: Recall and state the measured viability, T/C for O=c1[nH]cc(F)c(=O)[nH]1 + Cc1cnc(CNC(=O)c2c(=O)c3ccc(N4CCCN(C)CC4)nc3n3c2sc2ccccc23)cn1 .
Data returned: 44.3

Data request: Recall and state the measured viability, T/C for C#Cc1c(F)ccc2cc(O)cc(-c3ncc4c(N5CC6CCC(C5)N6)nc(OCC56CCCN5CC(F)C6)nc4c3F)c12 (stereo unspecified) + Cc1[nH]c2ccc(F)cc2c1-c1nc2c3cccnc3c3ncccc3c2[nH]1 .
Data returned: 82.2

* * *

Tested on: 317291-083-R-J1-PDC complex spheroids, viability
measurementDescription: Anticancer human tumor 317291-083-R-J1-PDC cell line growth inhibition [GQUAD]; active = viability on the fitted dose curve at most 10% of control; inactive = the rest;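 further: spheroids exposed to compounds for one week before readout; percent viability relative to DMSO vehicle wells taken as 100%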
settings: second compound 10 µM; first compound 0.316 µM
Your reply should match one of these outcome classes. active, inactive

Reference set, count: 5
- compound: "Cc1[nH]c2ccccc2c1CCNCc1ccc(/C=C/C(=O)NO)cc1 + Cc1cnc(CNC(=O)c2c(=O)c3ccc(N4CCCN(C)CC4)nc3n3c2sc2ccccc23)cn1"
  targetOrSystem: "317291-083-R-J1-PDC complex spheroids, viability"
  labelValue: "active"
- compound: "CC1COCCN1c1cc(C2(O)CC3CCC(C2)O3)c2cnn(-c3ccn[nH]3)c2n1 (stereo unspecified) + Cc1[nH]c2ccc(F)cc2c1-c1nc2c3cccnc3c3ncccc3c2[nH]1"
  targetOrSystem: "317291-083-R-J1-PDC complex spheroids, viability"
  labelValue: "inactive"
- compound: "COc1cccc2c1C(=O)c1c(O)c3c(c(O)c1C2=O)CC(O)(C(=O)CO)CC3OC1CC(N)C(O)C(C)O1 (stereo unspecified) + Cc1cnc(CNC(=O)c2c(=O)c3ccc(N4CCCN(C)CC4)nc3n3c2sc2ccccc23)cn1"
  targetOrSystem: "317291-083-R-J1-PDC complex spheroids, viability"
  labelValue: "inactive"
- compound: "Cn1ncnc1[C@H]1c2n[nH]c(=O)c3cc(F)cc(c23)N[C@@H]1c1ccc(F)cc1 + Cc1[nH]c2ccc(F)cc2c1-c1nc2c3cccnc3c3ncccc3c2[nH]1"
  targetOrSystem: "317291-083-R-J1-PDC complex spheroids, viability"
  labelValue: "inactive"
- compound: "CC1COCCN1c1cc(-c2ccnn2C)c2ccnc(-c3ccn[nH]3)c2n1 (stereo unspecified) + Cc1[nH]c2ccc(F)cc2c1-c1nc2c3cccnc3c3ncccc3c2[nH]1"
  targetOrSystem: "317291-083-R-J1-PDC complex spheroids, viability"
  labelValue: "inactive"

Shift focus to the following entry.
Data request: How was CC(=O)O[C@H]1C(=O)[C@@]2(C)[C@H]([C@H](OC(=O)c3ccccc3)[C@]3(O)C[C@H](OC(=O)[C@H](O)[C@@H](NC(=O)c4ccccc4)c4ccccc4)C(C)=C1C3(C)C)[C@]1(OC(C)=O)CO[C@@H]1C[C@@H]2O + Cc1cnc(CNC(=O)c2c(=O)c3ccc(N4CCCN(C)CC4)nc3n3c2sc2ccccc23)cn1 classified in this test?
Data returned: active

* * *

Test system: 317291-083-R-J1-PDC complex spheroids, viability
measurementDescription: Anticancer human tumor 317291-083-R-J1-PDC cell line growth inhibition [GQUAD];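 further: spheroids exposed to compounds for one week before readout; percent viability relative to DMSO vehicle wells taken as 100%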
settings: second compound 3.16 µM; first compound 0.1 µM; stronger effect = lower value
# note: boundary value 70% maps to no; viability, T/C below it maps to yes

- compound: "O=c1[nH]cc(F)c(=O)[nH]1 + Cc1[nH]c2ccc(F)cc2c1-c1nc2c3cccnc3c3ncccc3c2[nH]1"
  labelValue: "no"
- compound: "CC1COCCN1c1cc(C2(O)CC3CCC(C2)O3)c2cnn(-c3ccn[nH]3)c2n1 (stereo not given) + Cc1cnc(CNC(=O)c2c(=O)c3ccc(N4CCCN(C)CC4)nc3n3c2sc2ccccc23)cn1"
  labelValue: "yes"
- compound: "CC(=O)O[C@H]1C(=O)[C@@]2(C)[C@H]([C@H](OC(=O)c3ccccc3)[C@]3(O)C[C@H](OC(=O)[C@H](O)[C@@H](NC(=O)c4ccccc4)c4ccccc4)C(C)=C1C3(C)C)[C@]1(OC(C)=O)CO[C@@H]1C[C@@H]2O + Cc1[nH]c2ccc(F)cc2c1-c1nc2c3cccnc3c3ncccc3c2[nH]1"
  labelValue: "yes"

Data request: Identify whether the compound C=CC(=O)N1CCN(c2nc(=O)n(-c3c(C)ccnc3C(C)C)c3nc(-c4c(O)cccc4F)c(F)cc23)C(C)C1 (stereo not given) + Cc1cnc(CNC(=O)c2c(=O)c3ccc(N4CCCN(C)CC4)nc3n3c2sc2ccccc23)cn1 records viability, T/C below 70%.
Data returned: yes
